Listing of entries alongside the reported Emax.
molecular target: OGA (Homo sapiens); construct: HEK293 cells inducible for P301L mutant human Tau (isoform 2N4R) were established at Janssen; endogenous in cells; host or cells: HEK293 cells inducible for P301L mutant human Tau (2N4R); assay: OGA cellular assay (ICC detection of O-GlcNAcylated proteins in HEK293 cells inducible for P301L mutant human Tau); type: cell-based; conditions: 6 hours incubation
Write the answer as a number in %, unit excluded.

Examples with answers:
Compound | System | Emax, %
CC(=O)Nc1ncc(CN2CCC3(CCN(c4cncc(C)c4)C3)C2)s1 (stereo not shown) | OGA (Homo sapiens) | 92.9
COc1cc(N2CCC3(CCN(Cc4cnc(NC(C)=O)s4)C3)C2)cc(C)n1 (stereo not shown) | OGA (Homo sapiens) | 86.3

Challenge: Bench note: what Emax did COc1cc(C)cc(N2CCC3(CCN(Cc4cnc(NC(C)=O)s4)C3)C2)n1 (stereo not shown) show?
Response given: 38.5

Challenge: One more compound: CC(=O)Nc1ncc(CN2CCC3(CCN(c4cc(C)nc(C)c4)C3)C2)s1 (single isomer, unassigned) [Product 3]
Response given: 100

Challenge: One more compound: Cc1cc(N2CCC3(CCN(Cc4ccc5sc(C)nc5c4)C3)C2)cc(C(F)(F)F)n1 (stereo not shown)
Response given: 6.9

###

target: OGA (Homo sapiens, UniProt O60502); construct: HEK293 cells inducible for P301L mutant human Tau (isoform 2N4R) were established at Janssen; endogenous in cells; host or cells: HEK293 cells inducible for P301L mutant human Tau (2N4R); experiment: OGA cellular assay (ICC detection of O-GlcNAcylated proteins in HEK293 cells inducible for P301L mutant human Tau); format: cell-based; conditions: 6 hours incubation, read-out: CELLULAR hOGA, pEC50 (converted)
Property name: EC50

Examples with answers:
Molecule | Result
Cc1cc(N2CCC3(CCN(Cc4ccc5scnc5c4)C3)C2)nc(C)n1 (stereo not shown) [Product 21] | > 1 µM
Cc1cc(N2CCC3(CCN(C(C)c4ccc5nccnc5c4)C3)C2)nc(C)n1.Cl (stereo not shown) [Product 20] | > 1000 µM
Cc1cc(N2CCC3(CCN(C(C)c4ccc5sc(C)nc5c4)C3)C2)nc(C)n1 (stereo not shown) [Product 31] | > 1 µM

Challenge: Bench note: what EC50 did Cc1cc(N2CCC3(CCN(Cc4ccc5nccnc5c4)C3)C2)nc(C)n1 (stereo not shown) [Product 22] show?
Response given: > 1 µM

###

Molecular target: recombinant human Meningioma Expressed Antigen 5 (MGEA5), also referred to as O-GlcNAcase (OGA) (Homo sapiens, UniProt O60502)
Construct: Full length OGA enzyme was purchased at OriGene (cat # TP322411); purchased OriGene TP322411
Sequence (O60502 1-916): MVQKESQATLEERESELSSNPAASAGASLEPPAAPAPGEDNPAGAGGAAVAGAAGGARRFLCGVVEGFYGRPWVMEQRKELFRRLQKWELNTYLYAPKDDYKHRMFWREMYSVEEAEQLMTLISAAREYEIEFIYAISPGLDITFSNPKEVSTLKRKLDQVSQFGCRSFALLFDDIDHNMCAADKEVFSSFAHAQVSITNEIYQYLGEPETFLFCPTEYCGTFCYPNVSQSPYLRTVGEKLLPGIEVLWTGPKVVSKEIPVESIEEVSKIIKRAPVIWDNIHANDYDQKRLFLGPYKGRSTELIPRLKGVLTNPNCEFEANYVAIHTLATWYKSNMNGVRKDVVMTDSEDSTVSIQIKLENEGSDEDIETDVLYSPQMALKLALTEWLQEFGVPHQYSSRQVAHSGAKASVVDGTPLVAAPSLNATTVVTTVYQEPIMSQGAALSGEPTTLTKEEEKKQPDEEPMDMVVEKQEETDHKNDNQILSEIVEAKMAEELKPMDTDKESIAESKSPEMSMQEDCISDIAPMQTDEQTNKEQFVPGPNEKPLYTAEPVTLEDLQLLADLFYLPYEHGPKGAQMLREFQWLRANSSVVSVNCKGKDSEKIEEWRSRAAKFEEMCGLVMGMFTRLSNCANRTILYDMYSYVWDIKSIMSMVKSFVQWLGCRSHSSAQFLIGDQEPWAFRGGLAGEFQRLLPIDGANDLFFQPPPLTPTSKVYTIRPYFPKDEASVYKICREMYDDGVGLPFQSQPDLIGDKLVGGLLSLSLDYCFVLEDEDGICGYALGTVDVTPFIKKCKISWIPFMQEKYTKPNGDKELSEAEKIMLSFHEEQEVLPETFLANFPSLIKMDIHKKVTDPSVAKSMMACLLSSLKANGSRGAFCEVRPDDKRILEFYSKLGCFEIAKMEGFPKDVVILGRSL
Assay: OGA biochemical assay (inhibition of FM-GlcNAc hydrolysis, fluorescence)
Conditions: read-out: ENZYMATIC hOGA; pIC50 (converted)
Property name: log10(IC50) (log10 of the value in nM)
# log10 transformed; quantity=IC50; unit=nM

Examples with answers:
Compound | log10(IC50)
CCc1cncc(N2CCC3(CCN(Cc4cnc(NC(C)=O)s4)C3)C2)n1 (stereo not shown) | 2.07
c1cnc2cc(CN3CCC4(CCN(c5cncc(C6CC6)n5)C4)C3)ccc2n1 (stereo not shown) | 2.86
CC(=O)Nc1ncc(CN2CCC3(CCN(Cc4ccc(C(F)(F)F)cn4)C3)C2)s1 (stereo not shown) | 3.30

Challenge: Bench note: what log10(IC50) did CC(=O)Nc1ncc(CN2CCC3(CCN(c4nc(C)cnc4C)C3)C2)s1 (stereo not shown) show?
Response given: 1.82

Challenge: One more compound: CC(=O)Nc1ncc(CN2CCC3(CCN(c4cc(F)ncc4C)C3)C2)s1 (stereo not shown)
Response given: 1.71

Challenge: One more compound: CCc1cc(N2CCC3(CCN(Cc4cnc(NC(C)=O)s4)C3)C2)cc(C)n1 (stereo not shown)
Response given: 0.96

Challenge: One more compound: Cc1cc(N2CCC3(CCN(Cc4ccc5nccnc5c4)C3)C2)nc(C)n1 (stereo not shown)
Response given: 2.44

Challenge: One more compound: Cc1cc(N2CCC3(CCN(C(C)c4ccc5scnc5c4)C3)C2)cc(C)n1 (stereo not shown)
Response given: 1.38

Challenge: One more compound: Cc1cc(N2CCC3(CCN(C(C)c4ccc5sc(C)nc5c4)C3)C2)nc(C)n1 (stereo not shown)
Response given: 1.53

Challenge: One more compound: CC(=O)Nc1ncc(CN2CCC3(CCN(Cc4cc(C)nc(C)c4)C3)C2)s1 (stereo not shown)
Response given: 2.75
